The entries below come with measured ED50 values attached.
Test system: Rattus norvegicus
assay: Compound concentration inhibiting 48 hr homologous passive cutaneous Anaphylaxis in rats peroral administration
Type: functional
measurement-parameters: po
Express your answer in mg/kg, writing the number without its unit.

Worked examples, 3 molecules total:
> print(dat)
                                   molecule      tested.system  observed.value
1  O=C(O)Cc1ccc2c(c1)/C(=C/CN1CCC(Cc3ccccc3)CC1)c1ccccc1CO2  Rattus norvegicus            0.73
2      CN1CCC(=C2c3ccccc3CC(=O)c3sccc32)CC1  Rattus norvegicus             4.8
3  CN(C)C/C=C1\c2ccccc2COc2ccc(CC(=O)O)cc21  Rattus norvegicus           0.077

Reported ED50 ( CN(C)CCSC1c2ccccc2COc2ccc(C(=O)O)cc21 (centres undefined) ) = 0.92
